This collection of values is drawn from ChEMBL document CHEMBL1140930.

# Tested on: L1210
# run description: Antiproliferative activity against mouse L1210 cells after 48 hrs by XTT assay
# Type: functional, cell-based
# condition notes: L1210, 48 h
Reported IC50 by item:
Just the number please, in nM, no unit attached.

The compound listed as COc1ccc(C(=O)C=C2c3ccccc3C(=O)c3ccccc32)cc1OC shows IC50 equal to 970

Lab note: next compound to report on.
The compound listed as COc1ccc(C(=O)C=C2c3ccccc3C(=O)c3ccccc32)cc1 shows IC50 equal to 50

====

# System: RKO
# run description: Antiproliferative activity against human RKO cells by XTT assay
# Type: functional, cell-based
measurement kind: IC50 (nM)
Just the number please, in nM, no unit attached.

Would you please look over these solved cases?
The compound listed as COc1ccc(C(=O)C=C2c3ccccc3C(=O)c3ccccc32)cc1 shows IC50 equal to 80

The compound listed as COc1ccc(C(=O)C=C2c3ccccc3C(=O)c3ccccc32)cc1OC shows IC50 equal to 510

The compound listed as COc1cc2c(c(OC)c1OC)-c1ccc(OC)c(=O)cc1[C@@H](NC(C)=O)CC2 [COLCHICINE] shows IC50 equal to 10

The compound listed as O=C(C=C1c2ccccc2C(=O)c2ccccc21)c1ccc(O)c(O)c1 shows IC50 equal to 240

Lab note: next compound to report on.
The compound listed as CC(=O)O[C@H]1C(=O)[C@@]2(C)[C@H]([C@H](OC(=O)c3ccccc3)[C@]3(O)C[C@H](OC(=O)[C@H](O)[C@@H](NC(=O)c4ccccc4)c4ccccc4)C(C)=C1C3(C)C)[C@]1(OC(C)=O)CO[C@@H]1C[C@@H]2O [PACLITAXEL] shows IC50 equal to 20

====

# run description: Cell cycle arrest in human KB/HeLa cells assessed as S phase accumulation at 316 nM after 24 hrs by FACS analysis
# Format: functional, cell-based
measurement kind: Activity (%)
Just the number please, in %, no unit attached.

Would you please look over these solved cases?
The compound listed as COc1ccc(C(=O)C=C2c3ccccc3C(=O)c3ccccc32)cc1 shows Activity equal to 6.2

The compound listed as CC(=O)O[C@H]1C(=O)[C@@]2(C)[C@H]([C@H](OC(=O)c3ccccc3)[C@]3(O)C[C@H](OC(=O)[C@H](O)[C@@H](NC(=O)c4ccccc4)c4ccccc4)C(C)=C1C3(C)C)[C@]1(OC(C)=O)CO[C@@H]1C[C@@H]2O [PACLITAXEL] shows Activity equal to 8.9

The compound listed as COc1cc2c(c(OC)c1OC)-c1ccc(OC)c(=O)cc1[C@@H](NC(C)=O)CC2 [COLCHICINE] shows Activity equal to 5.2

The compound listed as COC(=O)Nc1nc2cc(C(=O)c3cccs3)ccc2[nH]1 [NOCODAZOLE] shows Activity equal to 6

---
The compound listed as CC[C@]1(O)C[C@H]2CN(CCc3c([nH]c4ccccc34)[C@@](C(=O)OC)(c3cc4c(cc3OC)N(C=O)[C@H]3[C@@](O)(C(=O)OC)[C@H](OC(C)=O)[C@]5(CC)C=CCN6CC[C@]43[C@@H]65)C2)C1 [VINCRISTINE] shows Activity equal to 0.2

====

# run description: Antiproliferative activity against rat LT12 cells ectopic expression of human MDR1 after 48 hrs by XTT assay
# Format: functional, cell-based
# condition notes: LT12, 48 h
measurement kind: pIC50
Just so you know, pIC50 here is -log10 of the concentration in molar units; reply with that number alone.

Would you please look over these solved cases?
The molecule listed as CC[C@]1(O)C[C@@H]2CN(CCc3c([nH]c4ccccc34)[C@@](C(=O)OC)(c3cc4c(cc3OC)N(C)[C@H]3[C@@](O)(C(N)=O)[C@H](O)[C@]5(CC)C=CCN6CC[C@]43[C@@H]65)C2)C1 shows pIC50 equal to 6.59

The molecule listed as COc1ccc(C(=O)C=C2c3ccccc3C(=O)c3ccccc32)cc1OC shows pIC50 equal to 6.36

The molecule listed as COC(=O)Nc1nc2cc(C(=O)c3cccs3)ccc2[nH]1 shows pIC50 equal to 6.40

The molecule listed as COc1ccc(C(=O)C=C2c3ccccc3C(=O)c3ccccc32)cc1 shows pIC50 equal to 7.30

Lab note: next molecule to report on.
The molecule listed as CC(=O)O[C@H]1C(=O)[C@@]2(C)[C@H]([C@H](OC(=O)c3ccccc3)[C@]3(O)C[C@H](OC(=O)[C@H](O)[C@@H](NC(=O)c4ccccc4)c4ccccc4)C(C)=C1C3(C)C)[C@]1(OC(C)=O)CO[C@@H]1C[C@@H]2O shows pIC50 equal to 7.30

====

# run description: Cell cycle arrest in human KB/HeLa cells assessed as G1 phase accumulation at 100 nM after 24 hrs by FACS analysis
# Format: functional, cell-based
Lab note: compare Activity against 20%. Equal or greater, write 1. Smaller, write 0.

Would you please look over these solved cases?
(Q) Is reported Activity greater than or equal to 20% here: CC(=O)O[C@H]1C(=O)[C@@]2(C)[C@H]([C@H](OC(=O)c3ccccc3)[C@]3(O)C[C@H](OC(=O)[C@H](O)[C@@H](NC(=O)c4ccccc4)c4ccccc4)C(C)=C1C3(C)C)[C@]1(OC(C)=O)CO[C@@H]1C[C@@H]2O
(A) 0

(Q) Is reported Activity greater than or equal to 20% here: COC(=O)Nc1nc2cc(C(=O)c3cccs3)ccc2[nH]1
(A) 1

(Q) Is reported Activity greater than or equal to 20% here: CC[C@]1(O)C[C@H]2CN(CCc3c([nH]c4ccccc34)[C@@](C(=O)OC)(c3cc4c(cc3OC)N(C=O)[C@H]3[C@@](O)(C(=O)OC)[C@H](OC(C)=O)[C@]5(CC)C=CCN6CC[C@]43[C@@H]65)C2)C1
(A) 1

(Q) Is reported Activity greater than or equal to 20% here: COc1cc2c(c(OC)c1OC)-c1ccc(OC)c(=O)cc1[C@@H](NC(C)=O)CC2
(A) 0

Here is another compound to look at.
(Q) Is reported Activity greater than or equal to 20% here: COc1ccc(C(=O)C=C2c3ccccc3C(=O)c3ccccc32)cc1
(A) 0

====

# target system: Tubulin (Sus scrofa, UniProt P02554+P02550)
# run description: Inhibition of pig brain tubulin polymerization after 30 mins by turbidimetric assay
Reported IC50 by item:
Just the number please, in µM, no unit attached.

The molecule listed as O=C(C=C1c2ccccc2C(=O)c2ccccc21)c1ccccc1 shows IC50 equal to 5

The molecule listed as COc1ccccc1OC(=O)C=C1c2ccccc2C(=O)c2ccccc21 shows IC50 equal to 10

The molecule listed as O=C(C=C1c2ccccc2C(=O)c2ccccc21)c1ccc(O)cc1 shows IC50 equal to 0.9

The molecule listed as COc1cccc(OC)c1OC(=O)C=C1c2ccccc2C(=O)c2ccccc21 shows IC50 equal to 10

The molecule listed as COc1cccc(C(=O)C=C2c3ccccc3C(=O)c3ccccc32)c1 shows IC50 equal to 3.3

The molecule listed as COc1ccc(C(=O)C=C2c3ccccc3C(=O)c3ccccc32)cc1OC shows IC50 equal to 6

====

# Tested on: K562
# run description: Antiproliferative activity against human K562 cells after 48 hrs
# Assay type: functional, cell-based
# condition notes: K562, 48 h
Reported IC50 by item:
Just the number please, in nM, no unit attached.

The molecule listed as O=C(C=C1c2ccccc2C(=O)c2ccccc21)c1ccc(O)c(O)c1 shows IC50 equal to 160

The molecule listed as COc1ccc(C(=O)C(O)C2c3ccccc3C(=O)c3ccccc32)cc1 (stereo not given) shows IC50 equal to 18000

The molecule listed as COc1ccccc1OC(=O)C=C1c2ccccc2C(=O)c2ccccc21 shows IC50 equal to 1900

---
The molecule listed as COc1cc(C(=O)C(O)C2c3ccccc3C(=O)c3ccccc32)cc(OC)c1OC (stereo not given) shows IC50 equal to 21000

The molecule listed as COc1ccc(C(=O)C=C2c3ccccc3C(=O)c3ccccc32)c(OC)c1OC shows IC50 equal to 11000

The molecule listed as O=C(C=C1c2ccccc2C(=O)c2ccccc21)c1ccc(O)cc1 shows IC50 equal to 3430

The molecule listed as COc1csc(C(=O)C=C2c3ccccc3C(=O)c3ccccc32)c1 shows IC50 equal to 690

The molecule listed as Cc1ccc(C(=O)C=C2c3ccccc3C(=O)c3ccccc32)cc1 shows IC50 equal to 640

The molecule listed as O=C(C=C1c2ccccc2C(=O)c2ccccc21)c1cccs1 shows IC50 equal to 5210

The molecule listed as COc1cccc(C(=O)C=C2c3ccccc3C(=O)c3ccccc32)c1 shows IC50 equal to 2600

The molecule listed as COc1ccc(C(=O)C=C2c3ccccc3C(O)c3ccccc32)cc1 (stereo not given) shows IC50 equal to 210

The molecule listed as COc1ccc(C(=O)C=C2c3ccccc3C(=O)c3ccccc32)cc1OC shows IC50 equal to 1300

The molecule listed as COc1cc(C(=O)C=C2c3ccccc3C(=O)c3ccccc32)cc(OC)c1OC shows IC50 equal to 700

The molecule listed as O=C(C=C1c2ccccc2C(=O)c2ccccc21)c1ccccc1 shows IC50 equal to 3600

The molecule listed as COc1ccc(C(=O)C=C2c3ccccc3C(=O)c3ccccc32)cc1 shows IC50 equal to 70

The molecule listed as COC(=O)C=C1c2ccccc2C(=O)c2ccccc21 shows IC50 equal to 6000

The molecule listed as COc1ccc(C(=O)COc2c3ccccc3cc3ccccc23)cc1 shows IC50 equal to 10000

The molecule listed as O=C1c2ccccc2C(C(O)C(=O)c2ccccc2)c2ccccc21 (stereo not given) shows IC50 equal to 27000

The molecule listed as COc1cccc(OC)c1OC(=O)C=C1c2ccccc2C(=O)c2ccccc21 shows IC50 equal to 1640
